For each record, write down the corresponding IC50.
System: U937 cells (human monocytic cell line)
run.description: BzATP-induced IL-1β secretion inhibition in PMA-differentiated U937 cells
Type: cell-based
condition.parameters: U-937, U937 cells differentiated with PMA, read-out: IL-1β production inhibition grade (IC50)

Q. # IC50 lookup, item "C[C@H](CCC(=O)N[C@@H](CO)CS(=O)(=O)O)[C@H]1CC[C@H]2[C@@H]3CC[C@@H]4C[C@H](O)CC[C@]4(C)[C@H]3CC[C@]12C"
A. 100 to 200 nM

Q. Please give the result for "C[C@H](CCC(=O)N1CC[C@H](S(=O)(=O)O)C1)[C@H]1CC[C@H]2[C@@H]3[C@H](O)C[C@@H]4C[C@H](O)CC[C@]4(C)[C@H]3C[C@H](O)[C@]12C" too.
A. 50 to 100 nM

Q. Please give the result for "CC[C@H]1[C@@H](O)[C@@H]2[C@H](C[C@H](O)[C@]3(C)[C@@H]([C@H](C)CCC(=O)N(CCS(=O)(=O)O)C(C)C)CC[C@@H]23)[C@@]2(C)CC[C@@H](O)C[C@@H]12" too.
A. 50 to 100 nM

Q. Please give the result for "CC[C@H]1[C@@H](O)[C@@H]2[C@H](CC[C@]3(C)[C@@H]([C@H](C)CCC(=O)N4CCC[C@@H](S(=O)(=O)O)C4)CC[C@@H]23)[C@@]2(C)CC[C@@H](O)C[C@@H]12" too.
A. ≥ 200 nM

Q. Please give the result for "C[C@H](CCC(=O)N[C@H](Cc1ccccc1)CS(=O)(=O)O)[C@H]1CC[C@H]2[C@@H]3[C@H](O)C[C@@H]4C[C@H](O)CC[C@]4(C)[C@H]3C[C@H](O)[C@]12C" too.
A. < 50 nM

Q. Please give the result for "C[C@H](CCC(=O)N1CC[C@H](S(=O)(=O)O)C1)[C@H]1CC[C@H]2[C@@H]3CC[C@@H]4C[C@H](O)CC[C@]4(C)[C@H]3CC[C@]12C" too.
A. ≥ 200 nM

Q. Please give the result for "C[C@H](CCC(=O)N[C@@H](CS(=O)(=O)O)c1ccccc1)[C@H]1CC[C@H]2[C@@H]3CC[C@@H]4C[C@H](O)CC[C@]4(C)[C@H]3C[C@H](O)[C@]12C" too.
A. ≥ 200 nM

Q. Please give the result for "C[C@H](CCC(=O)NC1(CS(=O)(=O)O)CC1)[C@H]1CC[C@H]2[C@@H]3CC[C@@H]4CC(=O)CC[C@]4(C)[C@H]3CC[C@]12C" too.
A. ≥ 200 nM

Q. Please give the result for "C[C@H](CCC(=O)N(CCS(=O)(=O)O)Cc1cccnc1)[C@H]1CC[C@H]2[C@@H]3[C@H](O)C[C@@H]4C[C@H](O)CC[C@]4(C)[C@H]3C[C@H](O)[C@]12C" too.
A. 50 to 100 nM

Q. Please give the result for "C[C@H](CCC(=O)N1CC(S(=O)(=O)O)C1)[C@H]1CC[C@H]2[C@@H]3[C@H](O)C[C@@H]4C[C@H](O)CC[C@]4(C)[C@H]3C[C@H](O)[C@]12C" too.
A. < 50 nM

====

For each record, write down the corresponding inhibition at 1 µM.
System: J774A.1 (Mouse BALB/c monocyte macrophage cell line) cells
run.description: LPS-induced TNF-α secretion inhibition in J774A.1 cells
Format: cell-based
condition.parameters: J774.A1, 1 μM compound, graded compared to taurodeoxycholic acid (positive control), read-out: TNF-α production inhibition grade

Q. # inhibition at 1 µM lookup, item "CC[C@H]1[C@@H](O)[C@@H]2[C@H](C[C@H](O)[C@]3(C)[C@@H]([C@H](C)CCC(=O)N[C@H](CS(=O)(=O)O)C(C)C)CC[C@@H]23)[C@@]2(C)CC[C@@H](O)C[C@@H]12"
A. < 20%

Q. Please give the result for "C[C@H](CCC(=O)NC1(CS(=O)(=O)O)CC1)[C@H]1CC[C@H]2[C@@H]3CC[C@@H]4C[C@H](O)CC[C@]4(C)[C@H]3CC[C@]12C" too.
A. 20 to 50%

Q. Please give the result for "C[C@H](CCC(=O)N1CC[C@H](S(=O)(=O)O)C1)[C@H]1CC[C@H]2[C@@H]3CC[C@@H]4C[C@H](O)CC[C@]4(C)[C@H]3CC[C@]12C" too.
A. < 20%

Q. Please give the result for "C[C@H](CCC(=O)N1CC[C@H](S(=O)(=O)O)C1)[C@H]1CC[C@H]2[C@@H]3CC[C@@H]4C[C@H](O)CC[C@]4(C)[C@H]3C[C@H](O)[C@]12C" too.
A. < 20%

Q. Please give the result for "CC[C@H]1[C@@H](O)[C@@H]2[C@H](CC[C@]3(C)[C@@H]([C@H](C)CCC(=O)N[C@@H](CS(=O)(=O)O)C(C)C)CC[C@@H]23)[C@@]2(C)CC[C@@H](O)C[C@@H]12" too.
A. < 20%
